- System: MS2 coat protein
- Assay remarks: apparent KD of MS2 coat protein; designed switch direction (-1 OFF switch, 1 ON switch): -1; higher = weaker reporter binding
- Condition notes: Eterna round: R95; input ligand: none
Parameter measured: apparent KD of MS2 coat protein (nM)
// units = nM; emit number, no label

Solved cases (2 shown):
1. AGUAACCGUCACGAAAGUGAUGGUUACGCAAGCAAUUGUACAUGAGGAUCACCCAUGUCCUCAUUUGCUCGUCUUAU [Sensor 3 - 42] (puzzle: Sensor v3, turn-off variant 2) | 357
2. AAGAAACAUGAGGAUCACCCAUGUGAGGAUAUGACGAAGAAAAGAAAAGAAAGAAGAAUCAGAAGGCACAAAGG [salish99-ex1_r3_052] (puzzle: Exclusion 1) | 51.6

Kindly review the next sequence as well.
The value of apparent KD of MS2 coat protein measured for the sequence AAUAACAGAGGAUAUACUAUAAUAUGAAUAAAAUAAAUAAAACAUGAGGAUCACCCAUGUAGAAGGCUGAAUAA [JMF's Not so obvious solution 10] (puzzle: Exclusion 2) turned out to be 21.1
